experimentalTarget: T1, GST-tagged Abl SH3 domain fusion protein (human, UniProt P00519 61-121, limits assumed)
T1 construct: domain: SH3 domain; also called GST-Abl SH3; Abl1 SH3 domain; not shown: GST tag
T1 sequence (P00519 61-121 limits assumed): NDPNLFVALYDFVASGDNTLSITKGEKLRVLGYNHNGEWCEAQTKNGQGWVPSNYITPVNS
assayMethodText: peptide microarray, GST-Abl SH3 5 uM overlaid, peptide printed at 1 mg/ml, Cy3 fluorescence, triplicates
Non-standard residues stand in square brackets, D forms with d. No end group written: not given here. Ahx = NCCCCCC(=O)O
API: label(entry) gives label 1 if the entry's Average fluorescence intensity (high printing concentration) is strictly smaller than 40000; on equality or larger values it gives label 0.

{"binder": "[Ahx]PPAGGPPPPP (protein label as printed) [VASP2_HUMAN 165-174 peptide PPAGGPPPPP]", "category": "label 1"}
{"binder": "CPLQPPPPPP (not fully specified (N-terminus)) [PDE4D_HUMAN peptide CPLQPPPPPP]", "category": "label 1"}
{"binder": "[Ahx]LPPPPLPPPP [YLPM1_HUMAN 81-90 peptide LPPPPLPPPP]", "category": "label 1"}
{"binder": "[Ahx]VAPPPPPPPP [WASL_HUMAN 371-380 peptide VAPPPPPPPP]", "category": "label 1"}
{"binder": "[Ahx]SRGGPPPPPP [WASL_HUMAN 283-292 peptide SRGGPPPPPP]", "category": "label 1"}
{"binder": "LPPGPPPPVP (not fully specified (N-terminus)) [CPSF6_HUMAN 292-301 peptide LPPGPPPPVP]", "category": "label 1"}
{"binder": "[Ahx]GPVAPPPPPP [WASL_HUMAN 369-378 peptide GPVAPPPPPP]", "category": "label 0"}
{"binder": "[Ahx]GPPMPPPPPP [WASP_HUMAN 390-399 peptide GPPMPPPPPP]", "category": "label 1"}
{"binder": "APTVPPPLPP (not fully specified (N-terminus)) [3BP1_HUMAN 616-625 peptide APTVPPPLPP]", "category": "label 0"}
{"binder": "APPTPPPPPP (not fully specified (N-terminus)) [RAPH1_HUMAN 811-820 peptide APPTPPPPPP]", "category": "label 0"}
{"binder": "[Ahx]PPPPPPPGPP (protein label as printed) [WASP2_HUMAN 394-403 peptide PPPPPPPGPP]", "category": "label 1"}
{"binder": "[Ahx]PVAPPPPPPP [WASL_HUMAN 370-379 peptide PVAPPPPPPP]", "category": "label 0"}
{"binder": "PPAYPPPPVP (not fully specified (N-terminus)) [3BP2_HUMAN 201-210 peptide PPAYPPPPVP]", "category": "label 1"}
{"binder": "PNQVPPPPPP (not fully specified (N-terminus)) [ENAH_HUMAN 357-366 peptide PNQVPPPPPP]", "category": "label 0"}
